- Test system: logarithmic phase C. albicans (MC295) containing HWP1-lacZ
- assayMethodText: microbe, parasite or virus in culture
- Type: cell-based
- recordedConditions: Candida albicans, read-out: C. albicans LOG IC50, logarithmic phase growth invasion assay (converted)
Entries and their IC50 values follow.
Dear colleague, please return just the value in µM, with no unit written.

{"columns": ["compound", "systemName", "recordedEndpoint", "measurement"],
 "data": [
  ["Cc1cc(NS(=O)(=O)c2ccc(-c3ccc(F)cc3)cc2C)no1", "logarithmic phase C. albicans (MC295) containing HWP1-lacZ", "IC50", 1.47]
]}

Which IC50 is reported for this compound? CCCCc1ccc(S(=O)(=O)Nc2ccon2)cc1
1.42

Which IC50 is reported for this compound? CCCCc1cc(F)c(S(=O)(=O)Nc2cc(C)on2)cc1F
0.087

Which IC50 is reported for this compound? Cc1cc(NS(=O)(=O)c2ccc(-c3cccc(Cl)c3Cl)cc2)no1
3.01

Which IC50 is reported for this compound? Cc1cc(NS(=O)(=O)c2ccc(CC3CCCC3)cc2)no1
0.0793

Which IC50 is reported for this compound? CCCCc1ccc(S(=O)(=O)Nc2cc(C)on2)cc1 [drawing 232]
0.00603

Which IC50 is reported for this compound? Cc1cc(NS(=O)(=O)c2ccc(-c3ccccc3F)cc2)no1
0.35

Which IC50 is reported for this compound? Cc1cc(NS(=O)(=O)c2ccc(-c3ccc(F)c(Cl)c3)cc2)no1
0.192

Which IC50 is reported for this compound? Cc1cc(NS(=O)(=O)c2ccc(-c3cccc(Cl)c3)cc2)no1
0.11

Which IC50 is reported for this compound? Cc1cc(NS(=O)(=O)c2ccc(-c3cc4ccccc4s3)cc2)no1
1.76

Which IC50 is reported for this compound? Cc1cc(NS(=O)(=O)c2ccc(-c3ccc(F)cc3F)s2)no1
3.36
